// data source = ChEMBL document CHEMBL4513216

# Tested on: Plasmodium falciparum
# EXPERIMENT_SUMMARY: Screen against P. falciparum Asexual Blood Stage (ABS), at 5uM
# Type: functional, Dd2
# MEASUREMENT_PARAMETERS: tested at 5 uM
The campaign covered roughly 65,000 compounds. About 2,100 (3.2%) showed an effect of 50% or more. The median lay at about -52%. This is one part of a sample in which strong results are shown more often than they occur.
INHIBITION values for the molecules below.
Answer format reminder: number followed by unit.

Please review the following examples before continuing.
MOLECULE	INHIBITION
NC(CC1CCCCC1)c1ccccc1 (centres undefined)	55.4%
CC(C)(C)c1cc(CN2C[C@@H]3CC[C@H]2CN(Cc2ccccn2)C3)n[nH]1	74.1%
CC(C)c1ncc2c(n1)CN(CCCc1nc3ccccc3o1)CC2	70.3%
c1cnc(Nc2ccc(C3CCCCN3)cn2)cn1 (centres undefined)	13.6%

Let us examine a further case.
Problem: Provide INHIBITION value for the following molecule: CCn1cc(CN2CCCN(C(=O)Cc3ccc(C)nc3)CC2)cn1
Solution: -14.8%

====

# System: Plasmodium falciparum
# EXPERIMENT_SUMMARY: Screen against P. falciparum Asexual Blood Stage (ABS), at 5uM
# Type: functional, Dd2
# MEASUREMENT_PARAMETERS: tested at 5 uM
The campaign covered roughly 65,000 compounds. About 2,100 (3.2%) showed an effect of 50% or more. The median lay at about -52%. For the sample, strong results were picked, then their nearest neighbours and some compounds at random.
INHIBITION values for the molecules below.
Number in %, nothing else.

Please review the following examples before continuing.
MOLECULE	INHIBITION, %
COc1cc(C)c(CN2CCC3(CC2)[C@H](O)C[C@@H]3OCCN)cc1C	77.2
Cc1cc(CC(=O)N2CCN(CC3CC3)[C@@H]3CS(=O)(=O)C[C@@H]32)ccc1F	-75.7
Cc1cccc(CN2C[C@H](OCc3ccccn3)[C@H]3COC[C@H]32)n1	-21.3

Problem: Provide INHIBITION value for the following molecule: Cc1cc(CC(C)NC2CCSCC2)[nH]n1 (stereo unspecified)
Solution: -36.2

Problem: Provide INHIBITION value for the following molecule: CCOC(=O)[C@@H]1[C@@H](c2ccccc2)CN2CCN(C(=O)N(C)C)C[C@H]12
Solution: -64

Problem: Provide INHIBITION value for the following molecule: Cc1cc(C(F)(F)F)cc(=O)n1CCn1cc(Cl)cn1
Solution: 18.5

Problem: Provide INHIBITION value for the following molecule: c1ccc(-c2ncc(CN3CCC4(CCNCC4)C3)cn2)cc1
Solution: 10.6

Problem: Provide INHIBITION value for the following molecule: Cc1ccc(CN2CCO[C@H]3[C@@H](OCc4cccnc4)CC[C@@H]32)o1
Solution: 3.59

Problem: Provide INHIBITION value for the following molecule: NC(=O)c1cnn2c1NCC(CNCC1(c3ccccc3)CCC1)C2 (stereo unspecified)
Solution: 22.7

Problem: Provide INHIBITION value for the following molecule: Cc1cccc(CN2CCC3(CCCN(CC(=O)N(C)C)C3)C2)n1 (stereo unspecified)
Solution: -47.6

Problem: Provide INHIBITION value for the following molecule: CC(C)[C@H](N)C(=O)N1CCSc2ccccc2C1
Solution: 73.7
